study.conditions: in ethyl acetate, 323.15 K
observable: solubility (mole fraction)
Give bare numbers.

// solubility (mole fraction) lookup, molecule = COC(=O)c1cc(OC)c2c(c1-c1c(C(=O)OC)cc(OC)c3c1OCO3)OCO2 , result: 0.0103

====

study.conditions: in isopropanol, 323.15 K
observable: solubility (mole fraction)
One number for each entry.

solubility (mole fraction) reading for COC(=O)c1cc(OC)c2c(c1-c1c(C(=O)OC)cc(OC)c3c1OCO3)OCO2 : 0.000484

====

study.conditions: in acetone, 323.15 K
observable: solubility (mole fraction)
Answers are plain numbers.

Short answer for COC(=O)c1cc(OC)c2c(c1-c1c(C(=O)OC)cc(OC)c3c1OCO3)OCO2 : solubility (mole fraction) was 0.0174

====

study.conditions: in n-butanol, 333.15 K
observable: solubility (mole fraction)

Documented solubility (mole fraction) of COC(=O)c1cc(OC)c2c(c1-c1c(C(=O)OC)cc(OC)c3c1OCO3)OCO2 : 0.00104

====

study.conditions: in methanol, 323.15 K
observable: solubility (mole fraction)
One number for each entry.

Record COC(=O)c1cc(OC)c2c(c1-c1c(C(=O)OC)cc(OC)c3c1OCO3)OCO2 , field solubility (mole fraction): 0.000459

====

study.conditions: in n-propyl acetate, 313.15 K
observable: solubility (mole fraction)
Give bare numbers.

Sure, the documented solubility (mole fraction) for COC(=O)c1cc(OC)c2c(c1-c1c(C(=O)OC)cc(OC)c3c1OCO3)OCO2 is 0.00423

====

study.conditions: in ethanol, 313.15 K
observable: solubility (mole fraction)

Form field solubility (mole fraction), entry COC(=O)c1cc(OC)c2c(c1-c1c(C(=O)OC)cc(OC)c3c1OCO3)OCO2 : 0.000277

====

study.conditions: in n-butyl acetate, 323.15 K
observable: solubility (mole fraction)
Numbers only.

get_value(item= COC(=O)c1cc(OC)c2c(c1-c1c(C(=O)OC)cc(OC)c3c1OCO3)OCO2 , readout=solubility (mole fraction)) returns 0.00554

====

study.conditions: in n-pentanol, 303.15 K
observable: solubility (mole fraction)

Record summary for COC(=O)c1cc(OC)c2c(c1-c1c(C(=O)OC)cc(OC)c3c1OCO3)OCO2 : reported solubility (mole fraction) = 0.000114

====

study.conditions: in acetone, 293.15 K
observable: solubility (mole fraction)
One number for each entry.

Per the records, this compound ( COC(=O)c1cc(OC)c2c(c1-c1c(C(=O)OC)cc(OC)c3c1OCO3)OCO2 ) has solubility (mole fraction) equal to 0.00457

====

study.conditions: in methanol, 313.15 K
observable: solubility (mole fraction)
Answers are plain numbers.

COC(=O)c1cc(OC)c2c(c1-c1c(C(=O)OC)cc(OC)c3c1OCO3)OCO2 yielded solubility (mole fraction) of 0.000275

====

study.conditions: in ethanol, 323.15 K
observable: solubility (mole fraction)
Give bare numbers.

Value of solubility (mole fraction) reported for the compound COC(=O)c1cc(OC)c2c(c1-c1c(C(=O)OC)cc(OC)c3c1OCO3)OCO2 is 0.000523

====

study.conditions: in acetonitrile, 323.15 K
observable: solubility (mole fraction)
One number for each entry.

Form: compound = COC(=O)c1cc(OC)c2c(c1-c1c(C(=O)OC)cc(OC)c3c1OCO3)OCO2 ; solubility (mole fraction) = 0.0189
